molecular target: P2X purinoceptor 4 (Homo sapiens, UniProt Q99571); assay: Antagonist activity at human P2X4 receptor overexpressed in human 1321N1 cells assessed as inhibition of ATP-induced calcium responses by Fluo-4 AM/Ca2+ Flux assay; type: cell-based; conditions: read-out: IC50
Sequence (Q99571 whole entry): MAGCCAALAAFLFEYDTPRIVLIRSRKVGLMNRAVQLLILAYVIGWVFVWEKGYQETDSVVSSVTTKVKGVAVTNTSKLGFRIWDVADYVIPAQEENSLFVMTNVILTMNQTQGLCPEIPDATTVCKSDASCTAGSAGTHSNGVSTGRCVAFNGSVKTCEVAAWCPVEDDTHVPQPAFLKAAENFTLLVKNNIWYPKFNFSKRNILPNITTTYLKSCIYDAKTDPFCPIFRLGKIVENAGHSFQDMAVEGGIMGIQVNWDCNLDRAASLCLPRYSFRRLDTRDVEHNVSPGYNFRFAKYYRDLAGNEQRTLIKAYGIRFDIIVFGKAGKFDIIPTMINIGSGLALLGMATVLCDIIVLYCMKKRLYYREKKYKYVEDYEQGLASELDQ
Param label: returns Criterion met when IC50 < 500 nM, returns Criterion not met otherwise, including exact equality.

| Compound | Assay Target | Classification |
| --- | --- | --- |
| Cc1cc(B(O)O)ccc1CS(=O)(=O)Nc1ccc(N2C(=O)CC(=O)Nc3c2ccc2ccccc32)cc1 | P2X purinoceptor 4 (Homo sapiens, UniProt Q99571) | Criterion met |
| O=C1CC(=O)N(c2ccc(NS(=O)(=O)Cc3cc(F)ccc3Cl)cc2)c2ccc3ccccc3c2N1 | P2X purinoceptor 4 (Homo sapiens, UniProt Q99571) | Criterion met |
| O=C1CC(=O)N(c2ccc(NS(=O)(=O)c3cc(C(F)(F)F)ccc3Cl)cc2)c2ccc3ccccc3c2N1 | P2X purinoceptor 4 (Homo sapiens, UniProt Q99571) | Criterion not met |
| O=C1CC(=O)N(c2ccc(NS(=O)(=O)Cc3ccc(Br)cc3Cl)cc2)c2ccc3ccccc3c2N1 | P2X purinoceptor 4 (Homo sapiens, UniProt Q99571) | Criterion not met |
| O=C(Cc1cc(Br)ccc1Cl)Nc1ccc(N2C(=O)CC(=O)Nc3c2ccc2ccccc32)cc1 | P2X purinoceptor 4 (Homo sapiens, UniProt Q99571) | Criterion not met |
| O=C1CC(=O)N(c2ccc(NS(=O)(=O)c3ccccc3F)cc2)c2ccc3ccccc3c2N1 | P2X purinoceptor 4 (Homo sapiens, UniProt Q99571) | Criterion not met |
| Cc1ccccc1S(=O)(=O)Nc1ccc(N2C(=O)CC(=O)Nc3c2ccc2ccccc32)cc1 | P2X purinoceptor 4 (Homo sapiens, UniProt Q99571) | Criterion met |
| O=C1CC(=O)N(c2ccc(NC(=O)c3ccccc3)cc2)c2ccc3ccccc3c2N1 | P2X purinoceptor 4 (Homo sapiens, UniProt Q99571) | Criterion not met |
| N#Cc1ccc(S(=O)(=O)Nc2ccc(N3C(=O)CC(=O)Nc4c3ccc3ccccc43)cc2)c(Cl)c1 | P2X purinoceptor 4 (Homo sapiens, UniProt Q99571) | Criterion not met |

====

target: P2X purinoceptor 4 (Homo sapiens); assay: Antagonist activity at human P2X4 receptor overexpressed in human 1321N1 cells assessed as inhibition of ATP-induced calcium responses by Fluo-4 AM/Ca2+ Flux assay; type: cell-based; conditions: read-out: IC50
pIC50: −log10 of the molar value.

| Compound | Assay Target | pIC50 |
| --- | --- | --- |
| O=C1CC(=O)N(c2ccc(NS(=O)(=O)c3cccnc3[N+](=O)[O-])cc2)c2ccc3ccccc3c2N1 | P2X purinoceptor 4 (Homo sapiens) | 6.00 |
| Cc1cc(B(O)O)ccc1S(=O)(=O)Nc1ccc(N2C(=O)CC(=O)Nc3c2ccc2ccccc32)cc1 | P2X purinoceptor 4 (Homo sapiens) | 7.32 |
| COc1ccc(S(=O)(=O)Nc2ccc(N3C(=O)CC(=O)Nc4c3ccc3ccccc43)cc2)c(Cl)c1 | P2X purinoceptor 4 (Homo sapiens) | 5.22 |
| O=C1CC(=O)N(c2ccc(NS(=O)(=O)c3ccc(F)cc3Cl)cc2)c2ccc3ccccc3c2N1 | P2X purinoceptor 4 (Homo sapiens) | 6.89 |
| O=C1CC(=O)N(c2ccc(NC(=O)c3ccccc3F)cc2)c2ccc3ccccc3c2N1 | P2X purinoceptor 4 (Homo sapiens) | 5.64 |
| O=C1CC(=O)N(c2ccc(NC(=O)c3cccnc3F)cc2)c2ccc3ccccc3c2N1 | P2X purinoceptor 4 (Homo sapiens) | 5.62 |
| CNCC[C@H](Oc1cccc2ccccc12)c1cccs1 [DULOXETINE] | P2X purinoceptor 4 (Homo sapiens) | 5.23 |
| O=C1CC(=O)N(c2ccc(NS(=O)(=O)c3ccccc3Br)cc2)c2ccc3ccccc3c2N1 | P2X purinoceptor 4 (Homo sapiens) | 6.62 |
| CN(c1ccc(N2C(=O)CC(=O)Nc3c2ccc2ccccc32)cc1)S(=O)(=O)c1ccccc1 | P2X purinoceptor 4 (Homo sapiens) | 6.17 |

====

molecular target: P2X purinoceptor 4 (Homo sapiens); test: Antagonist activity at human P2X4 receptor overexpressed in human 1321N1 cells assessed as inhibition of ATP-induced calcium responses by Fluo-4 AM/Ca2+ Flux assay; assay type: cell-based; settings: read-out: IC50
pIC50: −log10 of the molar value.

| Compound | pIC50 |
| --- | --- |
| O=C1CC(=O)N(c2ccc(NS(=O)(=O)c3ccc(F)cc3)cc2)c2ccc3ccccc3c2N1 | 4.61 |
| O=C1CC(=O)N(c2ccc(NS(=O)(=O)Cc3c(F)cccc3Cl)cc2)c2ccc3ccccc3c2N1 | 6.97 |
| O=C1CC(=O)N(c2ccc(NS(=O)(=O)Cc3ccccc3Cl)nc2)c2ccc3ccccc3c2N1 | 7.12 |
| O=C1CC(=O)N(c2ccc(NS(=O)(=O)c3cccc4ccccc34)cc2)c2ccc3ccccc3c2N1 | 5.78 |
| O=C1CC(=O)N(c2ccc(NS(=O)(=O)c3cc(F)ccc3Cl)cc2)c2ccc3ccccc3c2N1 | 6.87 |
| Cc1ccc(F)cc1S(=O)(=O)Nc1ccc(N2C(=O)CC(=O)Nc3c2ccc2ccccc32)cc1 | 6.75 |
| O=C1CC(=O)N(c2ccccc2)c2ccc3ccccc3c2N1 | 5.03 |
| COc1ccc(Br)cc1S(=O)(=O)Nc1ccc(N2C(=O)CC(=O)Nc3c2ccc2ccccc32)cc1 | 5.63 |
| COc1ccccc1S(=O)(=O)Nc1ccc(N2C(=O)CC(=O)Nc3c2ccc2ccccc32)cc1 | 7.05 |

====

assay: Stability in human serum measured up to 90 mins at 3.1 to 8.7 MBq by analytical radio-HPLC analysis; assay type: ADME, cell-free; settings: dose 3.1-8.7 MBq, read-out: Stability
Attribute Measured: remaining at […]

| Compound | Recorded Value |
| --- | --- |
| Cc1cc([18F])ccc1CS(=O)(=O)Nc1ccc(N2C(=O)CC(=O)Nc3c2ccc2ccccc32)cc1 | > 99% |
| Cc1cc([18F])ccc1S(=O)(=O)Nc1ccc(N2C(=O)CC(=O)Nc3c2ccc2ccccc32)cc1 | > 99% |

====

molecular target: P2X purinoceptor 4 (Homo sapiens, UniProt Q99571); assay: Antagonist activity at human P2X4 receptor overexpressed in human 1321N1 cells assessed as inhibition of ATP-induced calcium responses by Fluo-4 AM/Ca2+ Flux assay; assay type: cell-based; conditions: read-out: IC50

| Compound | U | IC50 |
| --- | --- | --- |
| O=C1CC(=O)N(c2ccc(NC(=O)c3ccccc3Cl)cc2)c2ccc3ccccc3c2N1 | nM | 481 |
| O=C1CC(=O)N(c2ccc(NC(=O)c3cccnc3[N+](=O)[O-])cc2)c2ccc3ccccc3c2N1 | nM | 2280 |
| O=C1CC(=O)N(c2ccc(NS(=O)(=O)Cc3ccc(B(O)O)cc3Cl)cc2)c2ccc3ccccc3c2N1 | nM | 295 |
| Cc1cc(Br)ccc1S(=O)(=O)Nc1ccc(N2C(=O)CC(=O)Nc3c2ccc2ccccc32)cc1 | nM | 263 |
| O=C1CC(=O)N(c2ccc(NS(=O)(=O)Cc3ccc(F)cc3)cc2)c2ccc3ccccc3c2N1 | nM | 88 |
| Cc1cc(F)ccc1CS(=O)(=O)Nc1ccc(N2C(=O)CC(=O)Nc3c2ccc2ccccc32)nc1 | nM | 25 |
| O=C1CC(=O)N(c2ccc(NS(=O)(=O)c3cccnc3F)cc2)c2ccc3ccccc3c2N1 | nM | 1120 |
| COc1ccc(F)cc1S(=O)(=O)Nc1ccc(N2C(=O)CC(=O)Nc3c2ccc2ccccc32)cc1 | nM | 473 |
| O=C1CC(=O)N(c2ccc(NS(=O)(=O)c3ccc(C(F)(F)F)cc3Cl)cc2)c2ccc3ccccc3c2N1 | nM | 3390 |
| O=C1CC(=O)N(c2ccc(NS(=O)(=O)c3ccccc3I)cc2)c2ccc3ccccc3c2N1 | nM | 264 |
| O=C1CC(=O)N(c2ccc(NS(=O)(=O)c3ccc(B(O)O)cc3Cl)cc2)c2ccc3ccccc3c2N1 | nM | 891 |
| O=C1CC(=O)N(c2ccc(NS(=O)(=O)Cc3ccc(F)cc3Cl)cc2)c2ccc3ccccc3c2N1 | nM | 23 |
| O=C1CC(=O)N(c2ccc(NS(=O)(=O)Cc3ccccc3)cc2)c2ccc3ccccc3c2N1 | nM | 191 |
| O=C1CC(=O)N(c2ccc(NS(=O)(=O)Cc3ccc(F)cc3Br)cc2)c2ccc3ccccc3c2N1 | nM | 76 |
| COc1ccc(S(=O)(=O)Nc2ccc(N3C(=O)CC(=O)Nc4c3ccc3ccccc43)cc2)cc1 | nM | 3950 |
| O=C1CC(=O)N(c2ccc(NS(=O)(=O)c3ccc(Br)cc3Cl)cc2)c2ccc3ccccc3c2N1 | nM | 1590 |
| O=C1CC(=O)N(c2ccc(NS(=O)(=O)C3CCCCC3)cc2)c2ccc3ccccc3c2N1 | nM | 2580 |
| Cc1ccc(Cl)c(S(=O)(=O)Nc2ccc(N3C(=O)CC(=O)Nc4c3ccc3ccccc43)cc2)c1 | nM | 373 |

Origin of measurements: ChEMBL document CHEMBL6109055
